# credit: patent US9771381B2

Molecular target: human 20S proteasome (Homo sapiens, UniProt P28072+P28074+Q99436)
Test: Proteasome Inhibition Kinetics (enzyme progress curves)
Type: biochemical
Conditions: human 20S proteasome 0.25 nM activated with 0.01% SDS, 37° C.; half-life determined from koff; read-out: dissociation half-life t1/2
Measured residence time by item
READOUT_LABEL: residence time

[
  {
    "MOLECULE": "O=C(N[C@@H](Cc1ccccc1)C(=O)N[C@@H](CC1CCC1)B(O)O)c1cnccn1 [Compound 17]",
    "READOUT_LABEL": "residence time",
    "MEASURED_VALUE": "10 to 60 min"
  },
  {
    "MOLECULE": "O=C(N[C@@H](Cc1ccccc1)C(=O)N[C@@H](CC1CCC1)B(O)O)c1cc(Cl)ccc1Cl [Compound 6]",
    "READOUT_LABEL": "residence time",
    "MEASURED_VALUE": "10 to 60 min"
  },
  {
    "MOLECULE": "O=C(N[C@@H](CC1CCC1)B(O)O)[C@H](Cc1ccccc1)NS(=O)(=O)c1ccc(Oc2ccccn2)cc1 [Compound 41]",
    "READOUT_LABEL": "residence time",
    "MEASURED_VALUE": "< 10 min"
  }
]

###

IC50 data for human 20S proteasome (Homo sapiens) follow.

[
  {
    "MOLECULE": "O=C(N[C@@H](CC1CCC1)B(O)O)[C@H](Cc1ccccc1)NS(=O)(=O)c1ccc2ccccc2c1 [Compound 1]",
    "MEASUREMENT_TARGET": "human 20S proteasome (Homo sapiens)",
    "IC50": "< 50 nM"
  },
  {
    "MOLECULE": "O=C(N[C@@H](CC1CCC1)B(O)O)[C@H](Cc1ccccc1)NS(=O)(=O)c1ccc(Oc2ccncc2)cc1 [Compound 43]",
    "MEASUREMENT_TARGET": "human 20S proteasome (Homo sapiens)",
    "IC50": "< 50 nM"
  },
  {
    "MOLECULE": "C[C@H](O)[C@H](NS(=O)(=O)c1ccc2c(c1)N(C)CCO2)C(=O)N[C@@H](CC1CCC1)B(O)O [Compound 46]",
    "MEASUREMENT_TARGET": "human 20S proteasome (Homo sapiens)",
    "IC50": "50 to 150 nM"
  },
  {
    "MOLECULE": "O=C(N[C@@H](CC1CCC1)B(O)O)[C@H](Cc1ccccc1)NS(=O)(=O)c1ccc(Oc2ccccn2)cc1 [Compound 41]",
    "MEASUREMENT_TARGET": "human 20S proteasome (Homo sapiens)",
    "IC50": "< 50 nM"
  },
  {
    "MOLECULE": "CC1(C)[C@@H]2C[C@H]3OB([C@H](CC4CCC4)NC(=O)[C@H](Cc4ccccc4)NS(=O)(=O)c4ccc5ccccc5c4)O[C@@]3(C)[C@H]1C2 [Compound 12]",
    "MEASUREMENT_TARGET": "human 20S proteasome (Homo sapiens)",
    "IC50": "< 50 nM"
  },
  {
    "MOLECULE": "CC1(C)[C@@H]2C[C@H]3OB([C@H](CC4CCC4)NC(=O)[C@H](Cc4ccccc4)NC(=O)c4cccc(Oc5ccccc5)c4)O[C@@]3(C)[C@H]1C2 [Compound 13]",
    "MEASUREMENT_TARGET": "human 20S proteasome (Homo sapiens)",
    "IC50": "< 50 nM"
  },
  {
    "MOLECULE": "C[C@H](O)[C@H](NS(=O)(=O)c1ccc(Oc2ccccc2)nc1)C(=O)N[C@@H](CC1CCC1)B(O)O [Compound 42]",
    "MEASUREMENT_TARGET": "human 20S proteasome (Homo sapiens)",
    "IC50": "50 to 150 nM"
  },
  {
    "MOLECULE": "O=C(N[C@@H](CC1CCC1)B(O)O)[C@H](Cc1ccccc1)NS(=O)(=O)c1cccc(Oc2ccc(C(F)(F)F)cn2)c1 [Compound 34]",
    "MEASUREMENT_TARGET": "human 20S proteasome (Homo sapiens)",
    "IC50": "< 50 nM"
  },
  {
    "MOLECULE": "CC1(C)[C@@H]2C[C@H]3OB([C@H](CC4CCC4)NC(=O)[C@H](Cc4ccccc4)NC(=O)c4ccc5[nH]c(-c6ccccc6)nc5c4)O[C@@]3(C)[C@H]1C2 [Compound 14]",
    "MEASUREMENT_TARGET": "human 20S proteasome (Homo sapiens)",
    "IC50": "< 50 nM"
  },
  {
    "MOLECULE": "O=C(N[C@@H](CC1CCC1)B(O)O)[C@H](Cc1ccccc1)NS(=O)(=O)c1cccc2cnccc12 [Compound 47]",
    "MEASUREMENT_TARGET": "human 20S proteasome (Homo sapiens)",
    "IC50": "50 to 150 nM"
  },
  {
    "MOLECULE": "CC1(C)[C@@H]2C[C@H]3OB([C@H](CC4CCC4)NC(=O)[C@H](Cc4ccccc4)NC(=O)c4cccnc4Oc4ccccc4)O[C@@]3(C)[C@H]1C2 [Compound 9]",
    "MEASUREMENT_TARGET": "human 20S proteasome (Homo sapiens)",
    "IC50": "< 50 nM"
  },
  {
    "MOLECULE": "CC(=O)N[C@@H](CCc1ccccc1)C(=O)N[C@@H](Cc1ccccc1)C(=O)N[C@@H](CC1CCC1)B1O[C@@H]2C[C@@H]3C[C@@H](C3(C)C)[C@]2(C)O1 [Compound 16]",
    "MEASUREMENT_TARGET": "human 20S proteasome (Homo sapiens)",
    "IC50": "< 50 nM"
  }
]
